All figures here come from PubChem BioAssay AID463204.

tested on: S. cerevisiae Mot1-301 ts growth rescue, BacTiter-Glo ATP luminescence; assay: restored Mot1-301 yeast growth at 38.5C – whole organism, S. cerevisiae, Mot1-301 ts mutant, luminescence, dose retest, SUMOylation pathway inhibitor project, confirmation (AID 463204);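 further: growth at restrictive 38.5 degrees C of Mot1-301 OY566 strain; actives raise luminescence by restoring growth of the ts mutant at high temperature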
The source made the active and inactive calls.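 How the source made its calls: active means AC50 no more than ten times the top concentration tested, that is within one log above it; inconclusive means flat curve fit with activity between 30% and 70%, or invalid poor fit; inactive means AC50 beyond ten times the top tested dose.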
attribute-measured: AC50

> print(dat)
                                    compound         test.result
 1  Cc1nc2ccc(S(=O)(=O)NC(CC(C)C)C(=O)O)cc2s1 (stereo unspecified)  > 42 µM (inactive)
 2  CN=C1SC(CC(=O)Nc2sc3c(c2C#N)CCCC3)C(=O)N1C (stereo unspecified)  > 42 µM (inactive)
 3  Cc1ccc(C(C(=O)NCC2CCCO2)N(Cc2ccccc2F)C(=O)Cn2nnc(-c3cccs3)n2)cc1 (stereo unspecified)  > 42 µM (inactive)
 4           CC1CCN(CCCCOc2cccc(C(C)C)c2)CC1  > 42 µM (inactive)
 5                 CC(C)CCCN1CCN=C1Nc1ccccc1  > 42 µM (inactive)
 6  CNC(=O)c1ccccc1NC(=O)c1c(O)c2c([nH]c1=O)CCCC2  > 42 µM (inactive)
 7        O=C(O)COc1ccc(Br)cc1/C=N\Nc1ccccn1  > 42 µM (inactive)
 8          CCc1nccn1S(=O)(=O)c1cc(OC)ccc1OC  > 42 µM (inactive)
 9     COC(=O)c1ccccc1NC(=O)CSc1nnnn1CC(=O)O  > 42 µM (inactive)
10  Cc1n[nH]c(=O)c2c(NC(=O)COC(=O)Cc3ccc(Cl)cc3Cl)oc(C)c12  > 21 µM (inactive)

Continue with the next compound.
Read off the recorded AC50 for COc1ccccc1C(=O)NCCNc1ccc([N+](=O)[O-])cc1Cl > 110 µM (inactive)

* * *

tested on: S. cerevisiae Mot1-301 ts growth rescue, BacTiter-Glo ATP luminescence; test: restored Mot1-301 yeast growth at 38.5C – whole organism, S. cerevisiae, Mot1-301 ts mutant, luminescence, dose retest, SUMOylation pathway inhibitor project, confirmation (AID 463204)
Active and inactive are the calls of the source.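 Rule for the calls: active = AC50 no more than ten times the top concentration tested, that is within one log above it; inconclusive = flat curve fit with activity between 30% and 70%, or invalid poor fit; inactive = AC50 beyond ten times the top tested dose.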
Hi there, use one of these labels in your reply, thanks! true for active, false for inactive

These solved cases illustrate the format of a correct answer.
> print(dat)
                                   compound  label.value
1  O=C(O)C1C2CCCCC2=C2CCCCC2C1C(=O)c1ccccc1 (stereo unspecified)         true
2  O=C(Nc1nnc(-c2ccco2)o1)c1ccc(S(=O)(=O)N2CCCC2)cc1        false
3             Cc1cc2ncc(C(=O)N=CN(C)C)cn2n1        false

In this assay, the call recorded for O=C1N=C(N2CCOCC2)S/C1=C\c1cccnc1 was what? false

In this assay, the call recorded for CCOC(=O)c1[nH]c2ccc(F)cc2c1NC(=O)CCN1CCOCC1 was what? false

In this assay, the call recorded for Oc1c(Br)cc(Cl)cc1C=Nc1ccccc1Br was what? true

* * *

tested on: S. cerevisiae Mot1-301 ts growth rescue, BacTiter-Glo ATP luminescence; test: restored Mot1-301 yeast growth at 38.5C – whole organism, S. cerevisiae, Mot1-301 ts mutant, luminescence, dose retest, SUMOylation pathway inhibitor project, confirmation (AID 463204)
Calls of active or inactive are those of the source.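 Rule for the calls: active = AC50 no more than ten times the top concentration tested, that is within one log above it; inconclusive = flat curve fit with activity between 30% and 70%, or invalid poor fit; inactive = AC50 beyond ten times the top tested dose.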
Hi there, use one of these labels in your reply, thanks! active, inactive

> print(dat)
                                   molecule  label.value
1                 c1ccc(-c2cc3ccccc3cn2)cc1       active
2       CC(C)C(=O)Nc1cccc(-c2nc3ncccc3o2)c1     inactive
3  Cc1cccn2c(=O)c3cc(C(=O)NCc4cccnc4)c(=N)n(C(C)C)c3nc12     inactive
4    N#C/C(=C\c1ccc(O)c(O)c1)C(=O)Nc1ccccc1     inactive
5      COC(=O)c1ccc2[nH]c(C(C)(C)O)c(C)c2c1     inactive
6  COc1ccc(N2C(=O)CSC2c2ccc([N+](=O)[O-])cc2)cc1 (stereo unspecified)     inactive

In this assay, the call recorded for O=C1COc2ccc(C(=O)COC(=O)c3ncc(Cl)c(Cl)c3Cl)cc2N1 was what? inactive

In this assay, the call recorded for C=CC(=O)NC1CC2CCC1(C)C2(C)C (stereo unspecified) was what? inactive

In this assay, the call recorded for CC1=C(C(=O)OCc2ccccc2)C(c2cccc(F)c2)NC(=O)N1 (stereo unspecified) was what? inactive

In this assay, the call recorded for NC(=O)C1CCCN(C(=S)Nc2cccc3ccccc23)C1 (stereo unspecified) was what? inactive

In this assay, the call recorded for CCCCCCCCCCOC(=O)Cn1c(COc2ccc(OC)cc2)[n+](C)c2ccccc21 was what? active

* * *

system: S. cerevisiae Mot1-301 ts growth rescue, BacTiter-Glo ATP luminescence; assay: restored Mot1-301 yeast growth at 38.5C – whole organism, S. cerevisiae, Mot1-301 ts mutant, luminescence, dose retest, SUMOylation pathway inhibitor project, confirmation (AID 463204);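 further: growth at restrictive 38.5 degrees C of Mot1-301 OY566 strain; actives raise luminescence by restoring growth of the ts mutant at high temperature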
Activity calls are given as the source filed them.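 The calls were made as follows: active = AC50 no more than ten times the top concentration tested, that is within one log above it; inconclusive = flat curve fit with activity between 30% and 70%, or invalid poor fit; inactive = AC50 beyond ten times the top tested dose.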
This section presents compounds with their documented AC50 values.

Solved cases below.
> print(dat)
                                   compound         test.result
1                O=C1NC2(CCCCC2)NN1c1ccccc1  > 42 µM (inactive)
2  CC(C)Oc1ccc(CCC(=O)NNC(=O)c2ccccc2C(=O)O)cc1  > 42 µM (inactive)
3  Cc1ccc(CNC(=O)CCn2cc(-c3ccc(C)cc3)nc2CCN)cc1  > 42 µM (inactive)
4  COc1cc(C)c(Cl)c(C)c1S(=O)(=O)NCc1ccc2c(c1)OCO2  > 42 µM (inactive)
5  COCCn1c(=NC(=O)c2ccc(S(=O)(=O)N3CCOCC3)cc2)sc2cc(S(N)(=O)=O)ccc21  > 42 µM (inactive)
6  CC(C)(C)NC(=O)CN(C(=O)CCC(=O)Nc1nccs1)c1ccc2c(c1)OCCO2  > 42 µM (inactive)
7  COCC(C)n1c(-c2ccc3c(c2)NC(=O)CO3)csc1=Nc1ccc(OC(F)F)cc1 (stereo unspecified)             25.2 µM
8            CC(C)NC(=O)CCCc1cn(C)c2ccccc12  > 42 µM (inactive)

Read off the recorded AC50 for Cc1nc(N/N=C\c2ccc3c(c2)OCO3)sc1C 33.5 µM

Read off the recorded AC50 for CCCCOc1ccc(C(O)C(CN2CCOCC2)c2ccccc2)cc1 (stereo unspecified) > 42 µM (inactive)

Read off the recorded AC50 for CCCCC1=CC2=CC(=O)C(C)(OC(=O)CC)C(=O)C2=CN1CCc1ccc(Br)cc1 (stereo unspecified) > 42 µM (inactive)

* * *

test system: S. cerevisiae Mot1-301 ts growth rescue, BacTiter-Glo ATP luminescence; assay: restored Mot1-301 yeast growth at 38.5C – whole organism, S. cerevisiae, Mot1-301 ts mutant, luminescence, dose retest, SUMOylation pathway inhibitor project, confirmation (AID 463204);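 further: growth at restrictive 38.5 degrees C of Mot1-301 OY566 strain; actives raise luminescence by restoring growth of the ts mutant at high temperature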
Calls of active or inactive are those of the source.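 How the source made its calls: active means AC50 no more than ten times the top concentration tested, that is within one log above it; inconclusive means flat curve fit with activity between 30% and 70%, or invalid poor fit; inactive means AC50 beyond ten times the top tested dose.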
Hi there, use one of these labels in your reply, thanks! Y for active, N for inactive

These solved cases illustrate the format of a correct answer.
> print(dat)
                                   compound  label.value
1  CCCCN(C)C(=O)CCC(=O)Nc1ccc2nc(N3CCN(C)CC3)cc(C)c2c1            N
2  COC(=O)[C@@H]1[C@@H](C(=O)OC)C2(c3ccccc3-c3ccccc32)N(c2ccc(Cl)cc2)N1C#N            Y
3                          CCc1nn(C)c(N)c1C            N
4  N#C/C(=C/c1ccc(N2CCCCC2)o1)C(=O)Nc1ccc(Cl)cc1            N
5  CCCC(=O)Oc1c(S(=O)(=O)c2ccc(C)cc2)c(C)nn1C(C)(C)C            N

In this assay, the call recorded for CC(C)(C)n1nnnc1C(c1ccc(Cl)cc1)N(Cc1cccnc1)Cc1ccco1 (stereo unspecified) was what? Y

In this assay, the call recorded for Cn1cc(C(=O)Cc2ccccc2)c2ccccc21 was what? N

* * *

tested on: S. cerevisiae Mot1-301 ts growth rescue, BacTiter-Glo ATP luminescence; assay: restored Mot1-301 yeast growth at 38.5C – whole organism, S. cerevisiae, Mot1-301 ts mutant, luminescence, dose retest, SUMOylation pathway inhibitor project, confirmation (AID 463204);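 further: growth at restrictive 38.5 degrees C of Mot1-301 OY566 strain; actives raise luminescence by restoring growth of the ts mutant at high temperature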
Active and inactive are the calls of the source.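 The calls were made as follows: active = AC50 no more than ten times the top concentration tested, that is within one log above it; inconclusive = flat curve fit with activity between 30% and 70%, or invalid poor fit; inactive = AC50 beyond ten times the top tested dose.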
Hi there, use one of these labels in your reply, thanks! active, inactive

These solved cases illustrate the format of a correct answer.
> print(dat)
                                   molecule                             system.tested  label.value
1  O=C(CCNS(=O)(=O)c1cccc2nsnc12)NCCC1=CCCCC1  S. cerevisiae Mot1-301 ts growth rescue, BacTiter-Glo ATP luminescence     inactive
2  O=c1nc2ccc(Cl)cn2c2ccc(S(=O)(=O)N3CCOCC3)cc12  S. cerevisiae Mot1-301 ts growth rescue, BacTiter-Glo ATP luminescence     inactive
3  COc1cc(/C=N/NC(=O)c2ccncc2)ccc1OC(=O)c1ccco1  S. cerevisiae Mot1-301 ts growth rescue, BacTiter-Glo ATP luminescence     inactive

Now for a further molecule.
In this assay, the call recorded for C=C(C)C(=O)OC1(C(F)(F)F)Oc2cc(C)ccc2NC1=O (stereo unspecified) was what? active
